Biological target: UniProt:Q93009
Sequence (Q93009 208-1102): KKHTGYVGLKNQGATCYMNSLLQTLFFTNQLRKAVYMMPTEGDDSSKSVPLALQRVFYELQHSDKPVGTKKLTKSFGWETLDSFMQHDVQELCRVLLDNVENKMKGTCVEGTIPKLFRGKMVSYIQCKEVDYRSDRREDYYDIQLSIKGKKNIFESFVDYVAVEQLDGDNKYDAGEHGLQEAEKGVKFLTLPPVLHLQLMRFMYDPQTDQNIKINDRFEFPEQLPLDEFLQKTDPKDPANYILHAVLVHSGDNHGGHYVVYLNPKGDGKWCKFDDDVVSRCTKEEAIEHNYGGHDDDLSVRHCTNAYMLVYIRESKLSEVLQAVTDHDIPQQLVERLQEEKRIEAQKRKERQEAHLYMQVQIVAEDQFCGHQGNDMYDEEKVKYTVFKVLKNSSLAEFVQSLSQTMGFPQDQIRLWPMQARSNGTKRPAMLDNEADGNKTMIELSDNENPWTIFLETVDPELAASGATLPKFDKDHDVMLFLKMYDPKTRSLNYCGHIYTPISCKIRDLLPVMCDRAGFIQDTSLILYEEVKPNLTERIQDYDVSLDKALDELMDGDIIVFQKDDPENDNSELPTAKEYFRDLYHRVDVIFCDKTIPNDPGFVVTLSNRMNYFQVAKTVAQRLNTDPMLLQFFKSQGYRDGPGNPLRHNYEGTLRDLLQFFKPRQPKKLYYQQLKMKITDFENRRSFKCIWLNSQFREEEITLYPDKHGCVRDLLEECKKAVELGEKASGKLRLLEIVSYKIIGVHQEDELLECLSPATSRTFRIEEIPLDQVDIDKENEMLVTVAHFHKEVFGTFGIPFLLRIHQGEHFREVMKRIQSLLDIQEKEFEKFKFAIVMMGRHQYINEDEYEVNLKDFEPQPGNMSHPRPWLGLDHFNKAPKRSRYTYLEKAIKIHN
Test: USP7 Assay A (Ubitquin-Rhodamine110 Assay)
Assay type: biochemical
Conditions: Ub-Rh110 substrate 25 nM
Method: Each assay was performed in a final volume of 15 μL in assay buffer containing 20 mM Tris-HCl (pH 8.0, (1M Tris-HCl, pH 8.0 solution; Corning 46-031-CM)), 1 mM GSH (L-Glutathione reduced: Sigma #G4251), 0.03% BGG ([…], Sigma, #G7516-25G), and 0.01% Triton X-100 (Sigma, #T9284-10L). […] Fluorescence was read on the Envision (Excitation at 485 nm and Emission at 535 nm; Perkin Elmer) or on the PheraSTAR (Excitation at 485 nm and Emission at 535 nm; BMG Labtech). […]
endpoint-name: IC50

Consider the reported IC50 for these molecules:
{"molecule": "O=C(c1cnc(C2CC2)o1)N1CCC(O)(Cn2cnn3c(-c4ccc(F)cc4)ncc3c2=O)CC1", "IC50": "1 to 10 µM"}
{"molecule": "O=C(c1ccc(-n2cccn2)cc1)N1CCC(O)(Cn2cnn3c(-c4ccc(F)cc4)ncc3c2=O)CC1", "IC50": "1 to 10 µM"}

Hello, I would appreciate it if you could give IC50 for each entry below.
1. Cc1ccc(-c2ncc3c(=O)n(CC4(O)CCN(C(=O)C[C@H](C)n5cccn5)CC4)cnn23)cc1
2. Cc1ccc(C(=O)N2CCC(O)(Cn3cnn4c(-c5ccc(F)cc5)ncc4c3=O)CC2)cc1F
3. O=C(c1ccc(F)cc1)N1CCC(O)(Cn2cnn3c(-c4ccc(F)cc4)ncc3c2=O)CC1
4. Cc1ccc(-c2ncc3c(=O)n(CC4(O)CCN(C(=O)C[C@@H](C)n5cccn5)CC4)cnn23)cc1
5. Cc1ccc(C(=O)N2CCC(O)(Cn3cnn4c(-c5ccc(F)cc5)ncc4c3=O)CC2)cc1

# output
1. 1 to 10 µM
2. > 10 µM
3. > 10 µM
4. > 10 µM
5. > 10 µM

Your task in this section: give IC50 for each listed record.
1. Cc1ccc(-c2ncc3c(=O)n(CC4(O)CCN(C(=O)CC(C)n5cccn5)CC4)cnn23)cc1 (racemic)
2. Cc1ccc(-c2ncc3c(=O)n(CC4(O)CCN(C(=O)c5ccc(F)cc5)CC4)cnn23)cc1

# output
1 to 10 µM
1 to 10 µM
